targetSystem: T1, pig TF ECD-His (TF-His) protein (pig (Sus scrofa))
T1 construct: also called pig TF-His; pTF
T1 chain: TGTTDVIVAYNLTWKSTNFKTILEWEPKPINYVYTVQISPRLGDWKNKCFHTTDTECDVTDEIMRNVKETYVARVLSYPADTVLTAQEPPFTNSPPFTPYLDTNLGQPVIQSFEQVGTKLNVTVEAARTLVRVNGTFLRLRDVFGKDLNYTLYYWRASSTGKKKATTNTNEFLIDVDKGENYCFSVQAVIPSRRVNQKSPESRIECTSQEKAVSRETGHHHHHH
methodSummary: Biacore; antibody captured by anti-human IgG on CM5 chip, titration of pig TF-His, 1:1 model
With a cut-off of 3 nM, any Kd strictly below it is called criterion met; any Kd meeting it or above is called criterion not met.

Solved cases below.
anti-TF antibody 25G9 (antibody, human IgG1, V domains shown, Human IgG1) VH: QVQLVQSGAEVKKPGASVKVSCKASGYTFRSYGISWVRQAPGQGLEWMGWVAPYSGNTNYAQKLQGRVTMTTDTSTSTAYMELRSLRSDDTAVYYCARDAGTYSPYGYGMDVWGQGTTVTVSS VL: DIQMTQSPSTLSASVGDRVTITCQASQSIDSWLAWYQQKPGKAPKLLIYSASYLESGVPSRFSGSGSGTEFTLTISSLQPDDFATYYCQRFQSLPPFTFGGGTKVEIK ... criterion not met
anti-TF antibody 25A3 (antibody, human IgG1, V domains shown, Human IgG1) VH: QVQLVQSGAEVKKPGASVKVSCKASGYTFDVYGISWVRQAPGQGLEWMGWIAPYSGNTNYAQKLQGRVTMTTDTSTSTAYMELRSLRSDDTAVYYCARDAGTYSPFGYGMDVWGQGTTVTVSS VL: DIQMTQSPSTLSASVGDRVTITCQASQSINNWLAWYQQKPGKAPKLLIYKAYNLESGVPSRFSGSGSGTEFTLTISSLQPDDFATYYCQLFQSLPPFTFGGGTKVEIK ... criterion not met

Does the reported Kd of anti-TF antibody 25A5-T (antibody, human IgG1, V domains shown, Human IgG1) VH: QVQLVQSGAEVKKPGASVKVSCKASGYTFDAYGISWVRQAPGQGLEWMGWIAPYSGNTNYAQKLQGRVTMTTDTSTSTAYMELRSLRSDDTAVYYCARDAGTYSPFGYGMDVWGQGTTVTVSS VL: DIQMTQSPSTLSASVGDRVTITCRASESISNWLAWYQQKPGKAPKLLIYKAYSLEYGVPSRFSGSGSGTEFTLTISSLQPDDFATYYCQQFQKLPPFTFGGGTKVEIK stay below 3 nM?
criterion not met

Does the reported Kd of anti-TF antibody 25G1 (antibody, human IgG1, V domains shown, Human IgG1) VH: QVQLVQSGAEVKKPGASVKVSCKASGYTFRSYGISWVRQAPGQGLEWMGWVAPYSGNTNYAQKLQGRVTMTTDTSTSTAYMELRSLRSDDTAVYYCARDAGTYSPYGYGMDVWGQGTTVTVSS VL: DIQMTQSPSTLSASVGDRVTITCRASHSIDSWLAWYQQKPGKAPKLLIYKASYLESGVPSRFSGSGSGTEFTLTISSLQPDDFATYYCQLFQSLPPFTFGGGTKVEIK stay below 3 nM?
criterion met

Does the reported Kd of anti-TF antibody 43D8 (antibody, human IgG1, V domains shown, Human IgG1) VH: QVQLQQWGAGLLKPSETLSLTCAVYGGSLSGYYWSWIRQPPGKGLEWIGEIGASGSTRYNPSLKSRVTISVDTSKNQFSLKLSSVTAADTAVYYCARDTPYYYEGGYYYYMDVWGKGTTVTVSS VL: EIVLTQSPGTLSLSPGERATLSCRASQSVSSSFLAWYQQKPGQAPRLLIYGAYSRATGIPDRFSGSGSGTDFTLTISRLEPEDFAVYYCQQAGVVPYTFGGGTKVEIK stay below 3 nM?
criterion not met
